Where these numbers come from: ChEMBL document CHEMBL4602646

I'd be grateful if you could share measured CC50 for these entries.
Test system: Vero
Assay: Cytotoxicity against African green monkey Vero cells assessed as reduction in cell viability incubated for 48 hrs by MTT assay
Assay type: cell-based
Details: chlorocebus sabaeus, vero, 48 h

Solved entries:
Prompt: Field request: CC50 | item: C=C1CC[C@@H]2[C@](C)(COC(C)=O)[C@H](O)CC[C@@]2(C)[C@@H]1C/C=C1/C(=O)OC[C@H]1Oc1c(Cl)cc(Cl)c2cccnc12
Completion: 85 µM

Prompt: So what does the record say about CC50 for C=C1CC[C@@H]2[C@]3(C)COC(C)(C)O[C@@H]3CC[C@@]2(C)[C@@H]1C/C=C1/C(=O)OC[C@H]1Oc1cccc2ccc(C)nc12 ?
Completion: 65.3 µM

Prompt: Find the recorded CC50 belonging to C=C1CC[C@@H]2[C@](C)(CO)[C@H](O)CC[C@@]2(C)[C@@H]1C/C=C1/C(=O)OC[C@@H]1Oc1cccc2ccc(C)nc12 and report it.
Completion: 99.8 µM

Prompt: # CC50 lookup, item C=C1CC[C@@H]2[C@]3(C)COC(C)(C)O[C@@H]3CC[C@@]2(C)[C@@H]1C/C=C1/C(=O)OC[C@@H]1Oc1cccc2cccnc12
Completion: 22 µM

Prompt: Entry under review: C=C1CC[C@@H]2[C@](C)(CO)[C@H](O)CC[C@@]2(C)[C@@H]1C/C=C1/C(=O)OC[C@@H]1Oc1c(Cl)cc(Cl)c2cccnc12 . Reported CC50?
Completion: > 100 µM

Prompt: Which CC50 reading was recorded for the compound C=C1CC[C@@H]2[C@]3(C)COC(C)(C)O[C@@H]3CC[C@@]2(C)[C@@H]1C/C=C1/C(=O)OC[C@@H]1Oc1cccc2ccc(C)nc12 ?
Completion: 55.9 µM

Prompt: Find the recorded CC50 belonging to C=C1CC[C@@H]2[C@](C)(CO)[C@H](O)CC[C@@]2(C)[C@@H]1C/C=C1/C(=O)OC[C@H]1Oc1cccnc1[N+](=O)[O-] and report it.
Completion: 37.7 µM

Consider now this further compound.
Prompt: So what's the measured CC50 for this one? C=C1CC[C@H]2[C@@](C)(CCC(=O)[C@@]2(C)COC(C)=O)[C@@H]1C/C=C1/C(=O)OC[C@@H]1Oc1c(Cl)cc(Cl)c2cccnc12
Completion: 57.4 µM
